target_desc: T1, IGF-1R (coated on Maxisorp plates) (UniProt P08069 31-932, limits assumed)
T1 construct: also called the receptor
assay_info: competition ELISA, plate-coated IGF-1R, antibody titrated against 200 ng/mL IGF-2 biotin
What IC50 was measured for each of the following?
A complete answer gives the number and then names the unit.

Reported IC50, binder D03 antibody (antibody, V domains shown, Whole antibody; also called clone D03) VH: QVELVESGGGVVQPGRSQRLSCAASGFTFSSHGMHWVRQAPGKGLEWVAYIWFDGSSTYYADSVRGRFTISRDNSKNTLYLQMNSLRAEDTAVYFCARELGRRYFDLWGRGTLVSVSS VL: EIVLTQSPATLSLSPGERATLSCRASQSVSSALAWYQQKPGQAPRLLIYDASKRATGIPARFSGSGSGTDFTLTISSLEPEDFAVYYCQQRSKYPPWTFGQGTKVESK : ____
0.161 µg/mL

Please report the recorded IC50 for H11 antibody (antibody, V domains shown, Whole antibody) VH: QVELVESGGGVVQPGRSQRLSCAASGFTFSSYGMHWVRQAPGKGLEWVATIWHDGSSTYYADSVRGRFTISRDNSKNTLYLQMNSLRAEDTAVYFCARELGRRYFDLWGRGTLVSVSS VL: EIVLTQSPATLSLSPGERATLSCRASQSVSSALAWYQQKPGQAPRLLIYDASKRATGIPARFSGSGSGTDFTLTISSLEPEDFAVYYCQQRGKYPPWTFGQGTKVESK .
0.157 µg/mL

State the recorded IC50 for this entry: E01 antibody (antibody, V domains shown, Whole antibody) VH: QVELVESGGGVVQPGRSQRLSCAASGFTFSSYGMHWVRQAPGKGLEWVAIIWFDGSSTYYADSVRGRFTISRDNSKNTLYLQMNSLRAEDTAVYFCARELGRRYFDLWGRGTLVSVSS VL: EIVLTQSPATLSLSPGERATLSCRASQSVSSYLAWYQQKPGQAPRLLIYDASKRATGIPARFSGSGSGTDFTLTISSLEPEDFAVYYCQQRSKYPPWTFGQGTKVESK
0.141 µg/mL
